Biological target: E. coli Topoisomerase IV (Escherichia coli, UniProt P0AFI2+P20083)
Sequence (P0AFI2 whole entry): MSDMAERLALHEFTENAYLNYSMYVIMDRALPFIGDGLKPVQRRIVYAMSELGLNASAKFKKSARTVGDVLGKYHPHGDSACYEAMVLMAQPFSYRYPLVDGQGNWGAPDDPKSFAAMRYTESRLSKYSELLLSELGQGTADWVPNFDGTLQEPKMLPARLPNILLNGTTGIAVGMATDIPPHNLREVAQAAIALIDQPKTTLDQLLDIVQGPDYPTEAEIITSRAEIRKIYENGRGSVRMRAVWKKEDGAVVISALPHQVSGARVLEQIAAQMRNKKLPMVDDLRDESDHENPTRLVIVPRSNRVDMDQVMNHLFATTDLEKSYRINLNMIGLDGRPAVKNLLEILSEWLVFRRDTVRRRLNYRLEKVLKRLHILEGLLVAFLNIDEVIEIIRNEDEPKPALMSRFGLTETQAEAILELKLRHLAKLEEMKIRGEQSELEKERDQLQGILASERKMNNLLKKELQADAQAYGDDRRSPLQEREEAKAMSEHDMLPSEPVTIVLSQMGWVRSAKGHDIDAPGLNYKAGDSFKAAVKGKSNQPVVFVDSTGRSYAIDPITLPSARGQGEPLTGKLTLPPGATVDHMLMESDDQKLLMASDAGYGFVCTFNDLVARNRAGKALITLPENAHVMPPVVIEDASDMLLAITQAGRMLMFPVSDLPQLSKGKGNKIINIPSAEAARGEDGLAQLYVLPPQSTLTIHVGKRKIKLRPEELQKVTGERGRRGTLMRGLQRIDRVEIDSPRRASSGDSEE
Sequence (P20083 whole entry): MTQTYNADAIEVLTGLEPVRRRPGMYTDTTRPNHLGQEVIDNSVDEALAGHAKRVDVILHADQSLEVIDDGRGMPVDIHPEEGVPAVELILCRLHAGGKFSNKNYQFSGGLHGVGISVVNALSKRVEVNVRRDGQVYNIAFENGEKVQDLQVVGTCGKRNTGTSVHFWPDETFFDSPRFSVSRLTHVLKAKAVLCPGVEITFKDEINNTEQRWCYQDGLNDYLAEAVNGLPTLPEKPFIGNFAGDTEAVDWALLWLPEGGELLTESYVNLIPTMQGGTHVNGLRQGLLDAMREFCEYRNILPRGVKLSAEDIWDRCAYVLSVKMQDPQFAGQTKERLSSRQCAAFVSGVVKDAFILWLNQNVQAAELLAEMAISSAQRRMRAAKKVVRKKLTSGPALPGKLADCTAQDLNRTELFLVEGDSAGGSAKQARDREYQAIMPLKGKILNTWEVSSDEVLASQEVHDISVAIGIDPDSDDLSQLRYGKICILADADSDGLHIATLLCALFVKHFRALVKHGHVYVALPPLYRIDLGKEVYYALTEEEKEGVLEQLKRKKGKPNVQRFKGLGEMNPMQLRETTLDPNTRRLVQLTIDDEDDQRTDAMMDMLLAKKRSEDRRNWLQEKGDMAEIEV
Assay: biochemical
Quick reference: % inhibition Topo IV of the listed items.
property_label: % inhibition Topo IV (%)

1) O=c1oc2ccccc2c2[nH]c(CNCC3CCN(c4nccc5ccc(F)cc45)C3)cc12 (single isomer, unassigned) [Compound 181] :: 91
2) O=c1oc2ccccc2c2[nH]c(CNCC3CCN(c4nccc5ccc(F)cc45)C3)cc12 (single isomer, unassigned) [Compound 180] :: 57
3) O=c1oc2ccccc2c2[nH]c(CNCC3CN(c4nccc5ccc(F)cc45)CCO3)cc12 (single isomer, unassigned) [Compound 183] :: 77
4) O=c1oc2ccccc2c2[nH]c(CNCC3CN(c4nccc5ccc(F)cc45)CCO3)cc12 (single isomer, unassigned) [Compound 182] :: 52

---

Quick reference: IC50 of the listed items.
Target: E. coli Topoisomerase IV (Escherichia coli, UniProt P0AFI2+P20083)
Assay: biochemical
Conditions: IC50 Topo IV
property_label: IC50 (nM)

1. O=C1COc2ncc(F)cc2N1[C@H]1CC[C@H](NCc2cc3c(=O)oc4cccnc4c3[nH]2)CC1 :: 430
2. O=C1COc2ncc(F)cc2N1[C@H]1CC[C@H](NCc2cc3ncc4c(c3[nH]2)OCCO4)CC1 :: 1140
3. N#Cc1cnc2c(c1)N([C@H]1CC[C@H](NCc3cc4c(=O)oc5ccc(F)cc5c4[nH]3)CC1)C(=O)CO2 :: 1030
4. O=C1COc2ncc(F)cc2N1C1CCN(CC(O)CNc2cc(=O)oc3ccc(F)cc23)CC1 (centres unmarked) :: 620

---

Biological target: S. aureus DNA gyrase (Staphylococcus aureus, UniProt P0A0K8+P20831)
Sequence (P0A0K8 whole entry): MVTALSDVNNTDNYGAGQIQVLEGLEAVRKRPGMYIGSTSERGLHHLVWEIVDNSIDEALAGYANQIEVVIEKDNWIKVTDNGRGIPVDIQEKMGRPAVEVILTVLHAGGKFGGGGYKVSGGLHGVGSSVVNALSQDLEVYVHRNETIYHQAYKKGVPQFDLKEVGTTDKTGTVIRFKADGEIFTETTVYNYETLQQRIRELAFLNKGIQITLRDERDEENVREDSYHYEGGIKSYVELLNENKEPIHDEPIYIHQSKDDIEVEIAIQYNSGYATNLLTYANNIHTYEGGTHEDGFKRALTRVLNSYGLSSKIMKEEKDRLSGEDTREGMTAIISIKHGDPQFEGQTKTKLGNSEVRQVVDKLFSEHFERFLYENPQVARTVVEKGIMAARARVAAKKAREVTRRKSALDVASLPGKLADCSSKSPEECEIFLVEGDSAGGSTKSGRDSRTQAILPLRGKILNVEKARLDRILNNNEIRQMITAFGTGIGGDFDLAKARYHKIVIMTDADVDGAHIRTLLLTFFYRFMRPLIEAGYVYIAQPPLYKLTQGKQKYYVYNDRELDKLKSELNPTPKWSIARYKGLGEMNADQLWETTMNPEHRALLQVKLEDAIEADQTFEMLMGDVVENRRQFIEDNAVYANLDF
Sequence (P20831 whole entry): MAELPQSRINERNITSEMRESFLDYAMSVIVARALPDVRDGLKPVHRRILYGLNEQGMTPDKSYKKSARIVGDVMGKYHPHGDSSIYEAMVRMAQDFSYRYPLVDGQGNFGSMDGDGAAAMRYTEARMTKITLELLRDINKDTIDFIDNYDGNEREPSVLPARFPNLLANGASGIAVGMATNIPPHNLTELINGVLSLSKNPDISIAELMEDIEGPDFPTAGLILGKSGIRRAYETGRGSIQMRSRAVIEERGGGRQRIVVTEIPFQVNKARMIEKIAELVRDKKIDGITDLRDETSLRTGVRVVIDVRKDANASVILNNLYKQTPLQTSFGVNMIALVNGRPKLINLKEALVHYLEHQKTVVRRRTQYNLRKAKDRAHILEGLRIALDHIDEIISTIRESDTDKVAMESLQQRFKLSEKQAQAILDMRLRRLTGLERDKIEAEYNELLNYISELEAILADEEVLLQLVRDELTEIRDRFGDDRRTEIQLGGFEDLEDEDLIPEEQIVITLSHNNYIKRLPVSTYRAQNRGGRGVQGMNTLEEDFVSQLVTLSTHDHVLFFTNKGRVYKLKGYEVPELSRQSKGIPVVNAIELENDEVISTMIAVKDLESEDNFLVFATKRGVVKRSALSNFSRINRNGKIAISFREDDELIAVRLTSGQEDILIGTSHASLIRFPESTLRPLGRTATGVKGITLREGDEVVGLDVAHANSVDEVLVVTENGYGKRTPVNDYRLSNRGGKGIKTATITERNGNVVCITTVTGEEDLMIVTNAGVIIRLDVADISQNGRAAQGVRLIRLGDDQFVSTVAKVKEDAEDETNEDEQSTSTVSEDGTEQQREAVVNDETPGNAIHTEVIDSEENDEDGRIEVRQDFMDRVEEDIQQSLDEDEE
Assay: biochemical
Details: read-out: % inhibition DNA gyrase
Quick reference: inhibition at 50 µM of the listed items.
property_label: inhibition at 50 µM

1. O=c1oc2ccc(F)cc2c2[nH]c(CN[C@H]3CC[C@H](n4c(=O)cnc5ccc(F)cc54)CC3)cc12 :: 100%
2. COc1cnc2ccc(=O)n([C@H]3CC[C@H](NCc4cc5c(=O)oc6ccc(F)cc6c5[nH]4)CC3)c2c1 :: 100%
3. N#Cc1cnc2c(c1)N([C@H]1CC[C@H](NCc3cc4c(=O)oc5ccc(F)cc5c4[nH]3)CC1)C(=O)CO2 :: 100%
4. COc1cnc2ncc(=O)n([C@H]3CC[C@H](NCc4cc5c(=O)oc6ccc(F)cc6c5[nH]4)CC3)c2c1 :: 100%
5. O=C1COc2ncc(F)cc2N1[C@H]1CC[C@H](NCc2cc3c(=O)oc4ccc(F)cc4c3[nH]2)CC1 :: 86%
6. COc1ccc2ccc(=O)n([C@H]3CC[C@H](NCc4cc5c(=O)oc6ccc(F)cc6c5[nH]4)CC3)c2c1 :: 100%

---

Quick reference: inhibition at 50 µM of the listed items.
Target: E. coli Topoisomerase IV (Escherichia coli, UniProt P0AFI2+P20083)
Test: biochemical
Settings: read-out: % inhibition Topo IV
property_label: inhibition at 50 µM (%)

1) O=c1oc2ccc(F)cc2c2[nH]c(CN[C@H]3CC[C@H](n4c(=O)ccc5ncc(F)cc54)CC3)cc12 :: 100
2) COc1cnc2ccc(=O)n([C@H]3CC[C@H](NCc4cc5c(=O)oc6ccc(F)cc6c5[nH]4)CC3)c2c1 :: 100
3) O=c1oc2ccc(F)cc2c2[nH]c(CN[C@H]3CC[C@H](n4c(=O)cnc5ccc(F)cc54)CC3)cc12 :: 100
4) NC(=O)[C@]1(NCc2cc3c(=O)oc4ccc(F)cc4c3[nH]2)CC[C@H](N2C(=O)COc3ncc(F)cc32)CC1 :: 50

---

Quick reference: inhibition at 50 µM of the listed items.
Molecular target: E. coli DNA gyrase (Escherichia coli, UniProt P0AES4+P0AES6)
Assay: biochemical
Conditions: read-out: % inhibition DNA gyrase
property_label: inhibition at 50 µM (%)

1. COc1ccc2ncc(=O)n([C@H]3CC[C@H](NCc4cc5c(=O)oc6ccc(F)cc6c5[nH]4)CC3)c2n1 [Compound 201] :: 100
2. COc1cnc2ncc(=O)n([C@H]3CC[C@@H](NCc4cc5c(=O)oc6ccc(F)cc6c5[nH]4)CC3)c2c1 [Compound 213] :: 98
3. NC(=O)[C@]1(NCc2cc3c(=O)oc4ccc(F)cc4c3[nH]2)CC[C@H](N2C(=O)COc3ncc(F)cc32)CC1 [Compound 217] :: 82
4. N#Cc1cnc2c(c1)N([C@H]1CC[C@@H](NCc3cc4c(=O)oc5ccc(F)cc5c4[nH]3)CC1)C(=O)CO2 [Compound 215] :: 69
5. O=c1oc2ccc(F)cc2c2[nH]c(CN[C@H]3CC[C@H](n4c(=O)cnc5ncc(F)cc54)CC3)cc12 [Compound 209] :: 100
6. O=c1nc(NCC(O)CN2CCN(c3nccc4cc[n+]([O-])cc34)CC2)c2cc(F)ccc2o1 (stereo not drawn) [Compound 164] :: 100
7. O=c1nc(NCC(O)CN2CCN(c3nccc4ccncc34)CC2)c2cc(F)ccc2o1 (stereo not drawn) [Compound 157] :: 83
8. O=c1oc2ccc(F)cc2c2[nH]c(CN[C@H]3CC[C@@H](n4c(=O)cnc5ncc(F)cc54)CC3)cc12 [Compound 210] :: 92
9. COc1ccc2ccc(=O)n([C@H]3CC[C@H](NCc4cc5c(=O)oc6ccc(F)cc6c5[nH]4)CC3)c2c1 [Compound 219] :: 100
10. N#Cc1ccc2ccc(=O)n([C@H]3CC[C@H](NCc4cc5c(=O)oc6ccc(F)cc6c5[nH]4)CC3)c2c1 [Compound 206] :: 100
11. O=c1oc2ccccc2c2[nH]c(CNCC3CN(c4nccc5ccc(F)cc45)CCO3)cc12 (single isomer, unassigned) [Compound 182] :: 61
12. COc1cnc2ccc(=O)n([C@H]3CC[C@@H](NCc4cc5c(=O)oc6ccc(F)cc6c5[nH]4)CC3)c2c1 [Compound 205] :: 100
13. O=C1COc2ncc(F)cc2N1[C@H]1CC[C@H](N(CCO)Cc2cc3c(=O)oc4ccc(F)cc4c3[nH]2)CC1 [Compound 221] :: 81
14. COc1cnc2ccc(=O)n(C3CCN(CCc4cc5c(=O)oc6ccc(F)cc6c5[nH]4)CC3)c2n1 [Compound 200] :: 90
15. O=c1oc2ccc(F)cc2c2[nH]c(CN[C@H]3CC[C@H](n4c(=O)ccc5ncc(F)cc54)CC3)cc12 [Compound 207] :: 100
16. COc1ccc2ccc(=O)n(C3CCN(CCc4cc5c(=O)oc6ccc(F)cc6c5[nH]4)CC3)c2n1 [Compound 202] :: 100
17. N#Cc1cnc2c(c1)N([C@H]1CC[C@H](NCc3cc4c(=O)oc5ccc(F)cc5c4[nH]3)CC1)C(=O)CO2 [Compound 214] :: 99
18. COc1ccc2ncc(=O)n([C@H]3CC[C@H](NCc4cc5c(=O)oc6ccc(F)cc6c5[nH]4)CC3)c2c1 [Compound 208] :: 100
19. O=c1oc2ccc(F)cc2c2[nH]c(CN[C@H]3CC[C@H](n4c(=O)ccc5ccc(F)cc54)CC3)cc12 [Compound 216] :: 100
20. COc1ccc2ncc(=O)n(C3CCN(CCc4cc5c(=O)oc6ccc(F)cc6c5[nH]4)CC3)c2n1 [Compound 197] :: 87
21. O=C1COc2ncc(F)cc2N1[C@H]1CC[C@H](NCc2cc3c(=O)oc4ccc(F)cc4c3[nH]2)CC1 [Compound 193] :: 77
22. O=c1oc2ccccc2c2[nH]c(CNCC3CCN(c4nccc5ccc(F)cc45)C3)cc12 (single isomer, unassigned) [Compound 180] :: 58
23. Fc1ccc2ccnc(N3CCC(NCc4c[nH]c(-c5ccccn5)n4)CC3)c2c1 [Compound 160] :: 50
24. COc1cnc2ncc(=O)n([C@H]3CC[C@H](NCc4cc5c(=O)oc6ccc(F)cc6c5[nH]4)CC3)c2c1 [Compound 212] :: 100
25. O=C1COc2ncc(F)cc2N1[C@H]1CC[C@](CO)(NCc2cc3c(=O)oc4ccc(F)cc4c3[nH]2)CC1 [Compound 220] :: 100
26. COc1cnc2ccc(=O)n([C@H]3CC[C@H](NCc4cc5c(=O)oc6ccc(F)cc6c5[nH]4)CC3)c2c1 [Compound 204] :: 100
27. O=c1oc2ccc(F)cc2c2[nH]c(CN[C@H]3CC[C@H](n4c(=O)cnc5ccc(F)cc54)CC3)cc12 [Compound 211] :: 100

---

Molecular target: E. coli DNA gyrase (Escherichia coli, UniProt P0AES4+P0AES6)
Assay: biochemical
Conditions: IC50 DNA gyrase
pIC50: −log10 of the molar value.
property_label: pIC50

1) COc1cnc2c(c1)N([C@H]1CC[C@H](NCc3cc4c(=O)oc5ccc(F)cc5c4[nH]3)CC1)C(=O)CO2 :: 6.23
2) COc1ccc2ccc(=O)n([C@H]3CC[C@H](NCc4cc5c(=O)oc6ccc(F)cc6c5[nH]4)CC3)c2c1 :: 6.66
3) N#Cc1ccc2ccc(=O)n([C@H]3CC[C@H](NCc4cc5c(=O)oc6ccc(F)cc6c5[nH]4)CC3)c2c1 :: 7.30
4) O=c1oc2ccccc2c2[nH]c(CNCC3CN(c4nccc5ccc(F)cc45)CCO3)cc12 (single isomer, unassigned) [Compound 182] :: 6.13
5) O=c1oc2ccccc2c2[nH]c(CNCC3CN(c4nccc5ccc(F)cc45)CCO3)cc12 (single isomer, unassigned) [Compound 183] :: 6.11
6) COc1ccc2ncc(=O)n([C@H]3CC[C@H](NCc4cc5c(=O)oc6ccc(F)cc6c5[nH]4)CC3)c2c1 :: 7.10
